target: Fatty-acid amide hydrolase 1 (Rattus norvegicus, UniProt P97612); experiment: Inhibition of rat FAAH expressed in HEK293 cells using anandamide as substrate after 30 mins HPLC-MS/MS analysis

smiles string	IC50, µM
O=C(/C=C/C=C/c1ccc2c(c1)OCO2)N1CCCC1	61.3

====

test: Half life in pH 7.4 tris-HCl buffer by HPLC analysis

smiles string	half-life
O=C(/C=C/c1ccc(-c2ccccc2)cc1)N1CCCC1	> 16 h

====

Target: Fatty-acid amide hydrolase 1 (Rattus norvegicus, UniProt P97612)
Sequence (P97612 whole entry): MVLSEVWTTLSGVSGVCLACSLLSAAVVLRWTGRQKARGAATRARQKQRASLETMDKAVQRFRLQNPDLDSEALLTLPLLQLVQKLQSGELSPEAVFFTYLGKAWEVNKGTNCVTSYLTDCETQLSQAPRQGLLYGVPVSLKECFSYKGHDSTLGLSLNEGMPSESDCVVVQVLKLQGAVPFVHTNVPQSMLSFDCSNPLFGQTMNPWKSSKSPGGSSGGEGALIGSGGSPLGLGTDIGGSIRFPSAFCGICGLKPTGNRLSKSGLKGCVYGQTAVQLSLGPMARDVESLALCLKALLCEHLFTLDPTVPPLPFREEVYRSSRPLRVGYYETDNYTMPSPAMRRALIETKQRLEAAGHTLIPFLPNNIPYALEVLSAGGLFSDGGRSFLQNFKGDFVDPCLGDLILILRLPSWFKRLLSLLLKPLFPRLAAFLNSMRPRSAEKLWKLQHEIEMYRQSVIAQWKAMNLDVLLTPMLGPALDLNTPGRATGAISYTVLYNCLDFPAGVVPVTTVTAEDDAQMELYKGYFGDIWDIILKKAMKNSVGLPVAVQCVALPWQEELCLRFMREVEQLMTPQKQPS
Experiment: Inhibition of rat FAAH expressed in HEK293 cells using [3H]AEA as substrate after 30 mins HPLC-MS/MS analysis
Assay type: cell-based
Conditions: in the assay text read “anandamide” for “[3H]AEA”
pIC50: −log10 of the molar value.
Items are presented alongside their recorded pIC50.

molecule	pIC50
O=C(CCc1ccc(Oc2ccccc2)cc1)N1CCCC1	3.92
O=C(CCC1CCC(Oc2ccccc2)CC1)N1CCCC1 (configuration not stated)	4.35
O=C(/C=C/c1ccc(-c2ccccc2)cc1)N1CCCC1	3.26
O=C(CCC1CCC(c2ccccc2)CC1)N1CCCC1 (configuration not stated)	4.18
O=C(CCc1ccc(-c2ccccc2)cc1)N1CCCC1	4.04
O=C(CCc1ccc(-c2ccc3c(c2)OCO3)cc1)N1CCCC1	4.04
O=C(CCCCc1ccc2c(c1)OCO2)N1CCCC1	4.37

====

biological target: N-acylethanolamine-hydrolyzing acid amidase (Rattus norvegicus, UniProt Q5KTC7); test: Inhibition of rat NAAA expressed in HEK293 cells using heptadecenoylethanolamide as substrate after 30 mins HPLC-MS/MS analysis
Sequence (Q5KTC7 34-130 limits assumed): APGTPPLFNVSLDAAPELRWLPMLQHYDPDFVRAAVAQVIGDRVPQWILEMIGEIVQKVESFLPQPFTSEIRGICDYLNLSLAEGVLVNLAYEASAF
Sequence (Q5KTC7 131-362 limits assumed): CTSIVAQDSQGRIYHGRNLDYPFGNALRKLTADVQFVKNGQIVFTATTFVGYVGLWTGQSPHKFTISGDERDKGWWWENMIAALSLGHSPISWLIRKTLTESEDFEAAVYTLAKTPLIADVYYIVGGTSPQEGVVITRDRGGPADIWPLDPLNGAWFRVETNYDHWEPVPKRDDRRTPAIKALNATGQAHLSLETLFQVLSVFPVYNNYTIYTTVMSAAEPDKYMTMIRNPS
pIC50: −log10 of the molar value.
Items are presented alongside their recorded pIC50.

smiles string	reported relation	pIC50
O=C(CCc1ccc(OC2CCCCC2)cc1)N1CCCC1	=	6.15
O=C(CCCCCCc1cccc(F)c1)N1CCCC1	=	5.14
O=C(CCCCCCc1ccc(F)cc1)N1CCCC1	=	5.10
Cc1ccc(-c2ccc(CCC(=O)N3CCCC3)cc2)cc1	=	4.48
O=C(CCCCCCc1ccsc1)N1CCCC1	=	4.88
O=C(CCCCCCc1cccc(Cl)c1)N1CCCC1	=	5.43
CCCc1ccc(CCCCCCC(=O)N2CCCC2)cc1	<	4.00
O=C(CCCCCCc1cccnc1)N1CCCC1	<	4.00
O=C(/C=C/c1ccc(-c2ccccc2)cc1)N1CCCC1	=	5.82
COC(=O)c1cccc(CCCCCCC(=O)N2CCCC2)c1	<	4.00
O=C(CCc1ccc(C2CCCCC2)cc1)N1CCCC1	=	6.30
Cc1cccc(-c2ccc(CCC(=O)N3CCCC3)cc2)c1	=	4.78
O=C(CCCCCCc1cccc(O)c1)N1CCCC1	<	4.00
